This listing pairs binders with measured Kd.
Biological target: T1, Antibody 178-09_His B.1.1.7 (27080) (SARS-CoV-2, UniProt P0DTC2 14-685)
T1 construct: domain: S1; also called TB178-9
Test: Carterra SPR
The figure you give is taken to be in nM; do not add the unit.

7-22 (VHH, not shown: a dimerising Fc or GST) VHH: EVQLVESGGGLVQPGGSLRLSCAASGRTITRYTMGWFRQAPGKEREFVASITSGGSTAYADSVKGRFTISADNSKNTAYLQMNSLKPEDTAVYYCAKQDVGKPFDWGQGTLVTVSS = 41.7

Can you share its Kd? I mean this binder: 3-24 (VHH, not shown: a dimerising Fc or GST) VHH: EVQLVESGGGLVQPGGSLRLSCAASGINFSRYGMGWFRQAPGKEREFVASITYLGRTNYADSVKGRFTISADNSKNTAYLQMNSLKPEDTAVYYCALRVRPYGQYDWGQGTLVTVSS
2610

Can you share its Kd? I mean this binder: 3-28 (VHH, not shown: a dimerising Fc or GST) VHH: EVQLVESGGGLVQPGGSLRLSCAASGFTFRRYDMGWFRQAPGKEREFVSAISGGLAYYADSVKGRFTISADNSKNTAYLQMNSLKPEDTAVYYCAVDLSGDAVYDWGQGTLVTVSS
16.6

Can you share its Kd? I mean this binder: 7-6 (VHH, not shown: a dimerising Fc or GST) VHH: EVQLVESGGGLVQPGGSLRLSCAASGRIFYPMGWFRQAPGKEREFVAAVRWSSTGIYYTQYADSVKGRFTISADNSKNTAYLQMNSLKPEDTAVYYCAAALSEVWRGSENLREGYDWGQGTLVTVSS
42.4

Can you share its Kd? I mean this binder: 8-06 (VHH, not shown: a dimerising Fc or GST, also called 8-6) VHH: EVQLVESGGGLVQPGGSLRLSCAASGFTFDYYAMGWFRQAPGKEREFVSAIDSEGRTSYADSVKGRFTISADNSKNTAYLQMNSLKPEDTAVYYCARWGPFDIWGQGTLVTVSS
141

Can you share its Kd? I mean this binder: 7-45 (VHH) VHH: EVQLVESGGGLVQPGGSLRLSCAASGRTLSRYTMGWFRQAPGKEREFVASITSGGSTNYADSVKGRFTISADNSKNTAYLQMNSLKPEDTAVYYCAKEDVGKPFDWGQGTLVTVSS
43.4

Can you share its Kd? I mean this binder: 7-17 (VHH, not shown: a dimerising Fc or GST) VHH: EVQLVESGGGLVQPGGSLRLSCAASGFSLDYYGMGWFRQAPGKEREFVAAITSGGTPHYADSVKGRFTISADNSKNTAYLQMNSLKPEDTAVYYCASAYNPGIGYDWGQGTLVTVSS
39.8

Can you share its Kd? I mean this binder: 7-41 (VHH) VHH: EVQLVESGGGLVQPGGSLRLSCAASGRTFSTYVMGWFRQAPGKEREFVASISSRGITHYADSVKGRFTISADNSKNTAYLQMNSLKPEDTAVYYCAKEDVGKPFDWGQGTLVTVSS
35.6
